- assayed system: human phosphodiesterase type 2 (source: U-937 cells) (Homo sapiens, UniProt O00408)
- Construct: human phosphodiesterase type 2 (source: U-937 cells); endogenous in cells
- Sequence (O00408 whole entry): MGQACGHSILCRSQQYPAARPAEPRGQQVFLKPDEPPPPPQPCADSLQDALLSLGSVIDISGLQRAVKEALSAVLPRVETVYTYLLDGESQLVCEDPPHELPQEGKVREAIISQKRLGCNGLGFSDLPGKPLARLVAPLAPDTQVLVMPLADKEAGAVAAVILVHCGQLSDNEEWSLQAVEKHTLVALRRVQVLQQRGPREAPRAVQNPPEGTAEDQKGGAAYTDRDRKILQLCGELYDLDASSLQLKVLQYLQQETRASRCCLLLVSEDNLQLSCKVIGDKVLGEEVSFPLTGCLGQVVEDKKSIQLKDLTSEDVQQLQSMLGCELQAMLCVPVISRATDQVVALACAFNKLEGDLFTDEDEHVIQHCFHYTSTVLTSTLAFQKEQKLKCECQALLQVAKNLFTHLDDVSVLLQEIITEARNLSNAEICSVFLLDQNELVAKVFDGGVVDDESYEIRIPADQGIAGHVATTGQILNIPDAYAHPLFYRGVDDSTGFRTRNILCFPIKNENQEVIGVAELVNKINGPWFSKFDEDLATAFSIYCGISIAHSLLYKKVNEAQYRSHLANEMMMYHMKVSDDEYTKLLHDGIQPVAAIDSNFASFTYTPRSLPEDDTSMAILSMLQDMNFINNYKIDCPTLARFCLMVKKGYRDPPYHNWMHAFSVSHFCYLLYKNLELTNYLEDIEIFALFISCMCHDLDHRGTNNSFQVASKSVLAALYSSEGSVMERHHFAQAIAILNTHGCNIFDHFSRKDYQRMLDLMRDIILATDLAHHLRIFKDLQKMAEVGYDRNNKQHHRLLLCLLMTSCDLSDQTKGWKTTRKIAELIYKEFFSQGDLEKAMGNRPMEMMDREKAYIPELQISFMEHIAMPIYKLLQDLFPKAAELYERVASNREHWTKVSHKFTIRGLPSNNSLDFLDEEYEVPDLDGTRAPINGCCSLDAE
- experimental details: PDE2 inhibition, [3H]cAMP hydrolysis, scintillation
- run parameters: substrate [3H]cAMP+cAMP 1 μM, 30 minutes at 30° C.
quantity measured: IC50 (µM)

{"columns": ["compound", "quantity measured", "value"],
 "data": [
  ["CCCCCC[C@@H]([C@@H](C)O)n1cnc2c(N)ncnc21 (racemic)", "IC50", 2.1]
]}
